Readings of MIC for the listed molecules
test system: Bacillus licheniformis; assay: Antimicrobial activity against Bacillus licheniformis DSM 13=ATCC 14580 after 48 hr by agar dilution method; format: functional; details: DSM 13 = ATCC 14580, 48 h
assayMetric: MIC

molecule	testValue
COC1(CC[C@@H](C)CO[C@@H]2O[C@H](CO)[C@@H](O)[C@H](O)[C@H]2O)O[C@H]2C[C@H]3[C@@H]4CC[C@H]5C[C@@H](O[C@@H]6O[C@H](CO)[C@H](O[C@@H]7O[C@H](CO)[C@@H](O)[C@H](O[C@@H]8OC[C@@H](O)[C@H](O)[C@H]8O)[C@H]7O[C@@H]7O[C@H](CO)[C@@H](O)[C@H](O[C@@H]8O[C@H](CO)[C@@H](O)[C@H](O)[C@H]8O)[C@H]7O)[C@H](O)[C@H]6O)CC[C@]5(C)[C@H]4CC[C@]3(C)[C@H]2[C@@H]1C (some centres not stated) [22-O-METHYL-CAPSICOSIDE D]	> 1000 µg/mL
C[C@H](CCC1(O)O[C@H]2C[C@H]3[C@@H]4CC[C@H]5C[C@@H](O[C@@H]6O[C@H](CO)[C@H](O[C@@H]7O[C@H](CO)[C@@H](O)[C@H](O[C@@H]8O[C@H](CO)[C@@H](O)[C@H](O)[C@H]8O)[C@H]7O[C@@H]7O[C@H](CO)[C@@H](O)[C@H](O[C@@H]8O[C@H](CO)[C@@H](O)[C@H](O)[C@H]8O)[C@H]7O)[C@H](O)[C@H]6O)[C@H](O)C[C@]5(C)[C@H]4CC[C@]3(C)[C@H]2[C@@H]1C)CO[C@@H]1O[C@H](CO)[C@@H](O)[C@H](O)[C@H]1O (some centres not stated) [CAPSICOSIDE A]	> 1000 µg/mL

* * *

system: Rhizopus arrhizus; assay: Antimicrobial activity against Rhizopus oryzae ATCC 56536 after 48 hr by agar dilution method; assay type: functional; conditions: ATCC 56536, 48 h
Recorded MIC values for a group of compounds are listed next.

compound	MIC, µg/mL
C=C(CCC1(OC)O[C@H]2C[C@H]3[C@@H]4CC[C@H]5C[C@@H](O[C@@H]6O[C@H](CO)[C@H](O[C@@H]7O[C@H](CO)[C@@H](O)[C@H](O[C@@H]8O[C@H](CO)[C@@H](O)[C@H](O)[C@H]8O)[C@H]7O[C@@H]7O[C@H](CO)[C@@H](O)[C@H](O[C@@H]8O[C@H](CO)[C@@H](O)[C@H](O)[C@H]8O)[C@H]7O)[C@H](O)[C@H]6O)[C@H](O)C[C@]5(C)[C@H]4CC[C@]3(C)[C@H]2[C@@H]1C)CO[C@@H]1O[C@H](CO)[C@@H](O)[C@H](O)[C@H]1O (stereo partly drawn) [Capsicoside E]	125
COC1(CC[C@@H](C)CO[C@@H]2O[C@H](CO)[C@@H](O)[C@H](O)[C@H]2O)O[C@H]2C[C@H]3[C@@H]4CC[C@H]5C[C@@H](O[C@@H]6O[C@H](CO)[C@H](O[C@@H]7O[C@H](CO)[C@@H](O)[C@H](O[C@@H]8O[C@H](CO)[C@@H](O)[C@H](O)[C@H]8O)[C@H]7O[C@@H]7O[C@H](CO)[C@@H](O)[C@H](O[C@@H]8O[C@H](CO)[C@@H](O)[C@H](O)[C@H]8O)[C@H]7O)[C@H](O)[C@H]6O)CC[C@]5(C)[C@H]4CC[C@]3(C)[C@H]2[C@@H]1C (stereo partly drawn) [22-O-METHYLCAPSICOSIDE G]	125
C=C[C@](C)(CC/C=C(\C)CC/C=C(\C)CC/C=C(/C)CO[C@@H]1O[C@@H](C)[C@H](O)[C@@H](O[C@@H]2O[C@H](CO[C@@H]3O[C@@H](C)[C@H](O)[C@@H](O)[C@H]3O)[C@@H](O)[C@H](O)[C@H]2O)[C@H]1O)O[C@@H]1O[C@H](CO)[C@@H](O)[C@H](O)[C@H]1O[C@@H]1O[C@H](CO)[C@@H](O)[C@H](O)[C@H]1O [CAPSIANOSIDE II]	1000
